system: MS2 coat protein; experiment: apparent KD of MS2 coat protein; designed switch direction (-1 OFF switch, 1 ON switch): 1; higher = weaker reporter binding; conditions: input ligand: none
propertyLabel: apparent KD of MS2 coat protein (nM)
The reply should contain only the number, in nM.

Query: // apparent KD of MS2 coat protein lookup, key: GUACUCAUGUAAGGAUAUGCAGCCGUUUCGGCUGCAGAAGGUACUAUAAUACAUGAGGAUCACCCAUGUCUCUAUAAUUUAGUG [salish99_SSNG1_r04_901] (Eterna round: R96, puzzle: Same State NG 1)
Response: 49

Query: One more sequence: UGGUACAUGGGAGGAUAUCUCAUGGAGACAUGAGGAUCACCCAUGUAGAUCGACGGUAACGUCGGAGAGAAGGCCCAUGUACCU [MOD JL SSNG1 3.70] (Eterna round: R96, puzzle: Same State NG 2)
Response: 50

Query: Quick one: ACAUAGGUUUCAGGAUAUGGGUAAAUUCCCUACAUGAGGAUCACCCAUGUCCGUAGGGAUAACAUCCAGAAGGGAAGCCACAUA [MOD3 Eternabot Solution 1 (Score 87.5)] (Eterna round: R96, puzzle: Same State NG 2)
Response: 221

FYI, the data here is from the supplement of paper PMC9170038.
